These entries and their values trace back to the nanobody polyreactivity screen of Harvey et al. (2022).

- assay_remarks: yeast display, Sf9 membrane polyspecificity reagent, FACS + sequencing; frameworks hold sequencing errors
assay_readout: polyreactivity (PSR sort gate)

Please review the entries below; each comes with its answer.
{"columns": ["query_sequence", "assay_readout", "value"],
 "data": [
  ["QFQLVESGGGLVQAGGSLRLSCAASGSTFIYYAMGWYRQAPGKDRELVAAISGCGASTYYADSVKGGFTISRDNAKNTVYLQMNSLKPEDTAVYYCHFYRWRGYDYWGQGTQVTVSS", "polyreactivity (PSR sort gate)", "high polyreactivity"],
  ["QVQLVESGGGLVQAGGSLRLSCAASGNIFRRYAMGWYRQAPGKERELVAAISRGGTRTYYADSVKGRFTISRDNAKNTVYLQMNSLKPEDTAVYYCNAEVKTNYRIADYDYWGQGTQVTVSS", "polyreactivity (PSR sort gate)", "high polyreactivity"],
  ["QVQLVESGGGLVQAGGSLRLSCAASGFIFDVYAMGWYRQAPGKERELVAAITSGDGTNYADSVKGRFTISRDNAKNTVYLQMNSLKPEDTAVYYCAADDGVTYRGIIFSYWGQGTQVTVSS", "polyreactivity (PSR sort gate)", "low polyreactivity"],
  ["QVQLVESGGGLVQAGGSLRLSCAASGSIFDSKAMGWFRQGPGKERELVAAINRSDASTYYADSVKGRFTISRDNAKNTVYLQMNSLKPEDTAVYYCAVEVYVYNVDIYDYWGQGTQVTVSS", "polyreactivity (PSR sort gate)", "low polyreactivity"]
]}

Problem: What value of measured polyreactivity (PSR sort gate) is listed for QVQLVESGGGLVQAGGSLRLSCAASGFTFARYAMGWYRQAPGKERELVAAITYSGSGTYYADSVKGRFTISRDNAKNTVYLQMNSLKPEDTAVYYCYPVTRSARSYDYWGQGTQVTVSS ?
Solution: high polyreactivity
